Reported values of pIC50 for individual entries
tested.system: Cbl-b (truncated variant, UniProt number Q13191) (Homo sapiens, UniProt Q13191)
Construct: made in house
Sequence (Q13191 36-427): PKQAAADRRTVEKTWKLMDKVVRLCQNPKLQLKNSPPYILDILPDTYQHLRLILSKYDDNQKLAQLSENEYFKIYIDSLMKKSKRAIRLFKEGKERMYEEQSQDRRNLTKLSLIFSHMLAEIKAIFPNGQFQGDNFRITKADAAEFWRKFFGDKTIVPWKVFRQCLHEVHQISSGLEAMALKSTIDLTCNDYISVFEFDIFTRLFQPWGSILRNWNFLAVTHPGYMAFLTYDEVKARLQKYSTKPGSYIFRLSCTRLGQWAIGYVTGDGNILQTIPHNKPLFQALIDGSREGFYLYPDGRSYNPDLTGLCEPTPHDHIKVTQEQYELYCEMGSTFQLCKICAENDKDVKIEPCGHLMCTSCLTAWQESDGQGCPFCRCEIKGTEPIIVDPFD
test.description: Cbl-b activity assay (TR-FRET, interaction of Cbl-b with UbcH5B-Ub)
Format: biochemical
measurement.setup: Biological Example 1A; low or high conditions not stated; read-out: IC50 values in the Cbl-b inhibition assay of Biological Example 1A
pIC50: −log10 of the molar value.

>>> print(df.to_string())
                                   compound  value_measured
0  C[C@H](Sc1nncn1C)c1cccc(-n2ncc(-c3cccc(C#N)c3)n2)c1    5.30 to 6.00
1  C[C@H](Sc1nncn1C)c1cccc(-n2ncc(-c3ccc(C#N)cc3)n2)c1    6.00 to 7.00
2  CNC(=O)c1ccc(-c2cn(-c3cccc([C@H](C)Sc4nncn4C)c3)nn2)cc1          ≤ 5.30

# compound "C[C@H](Sc1nncn1C)c1cccc(NC(=O)N2Cc3cnn(C)c3C2)c1" ; its pIC50 = 5.30 to 6.00

# compound "C[C@H](Sc1nncn1C)c1cccc(NC(=O)Nc2cccc(C(F)(F)F)n2)c1" ; its pIC50 = 6.00 to 7.00

====

Reported values of IC50 for individual entries
tested.system: Cbl-b (truncated variant, UniProt number Q13191) (Homo sapiens, UniProt Q13191)
Construct: made in house
test.description: Cbl-b activity assay (TR-FRET, interaction of Cbl-b with UbcH5B-Ub)
Type: biochemical
measurement.setup: Biological Example 1A; low or high conditions not stated; read-out: IC50 values in the Cbl-b inhibition assay of Biological Example 1A
Description: As described in Biological Example 1A, a Cbl-b activity assay (Cbl-b inhibition assay) used to measure the IC50 values for Cbl-b inhibition uses a mixture comprising candidate compound, Cbl-b (truncated, with an Avitag, and biotinylated), a fluorescently-labeled E2 enzyme UbcH5B labelled with ubiquitin conjugated to BODIPY-fluorescein (UbcH5B-Ub), streptavidin-terbium, and assay buffer. […] Inhibition of fluorescence energy transfer indicates Cbl-b activity. […]

>>> df
                                   compound  value_measured
0  C[C@H](Sc1nncn1C)c1cccc(NC(=O)N2Cc3cccc(O)c3C2)c1  100 to 1000 nM
1  C[C@H](Sc1nncn1C)c1cccc(NC(=O)Nc2ccccn2)c1  100 to 1000 nM

Turning now to a further record.
# compound C[C@H](Sc1nncn1C)c1cccc(NC(=O)N2CC3CCCC3C2)c1 (stereo partly drawn) ; its IC50 = 1000 to 5000 nM

====

tested.system: Cbl-b (truncated variant, UniProt number Q13191) (Homo sapiens, UniProt Q13191)
Construct: made in house
test.description: Cbl-b activity assay (TR-FRET, interaction of Cbl-b with UbcH5B-Ub)
Format: biochemical
measurement.setup: high conditions: 100 mM NaCl, 60 nM Src kinase; 12 nM Cbl-b; read-out: Cbl-b activity IC50
Reported values of IC50 for individual entries

                            compound_smiles  value_measured
0  C[C@H](Sc1nncn1C)c1cccc(NC(=O)Nc2ccccc2)c1          ≥ 5 µM
1  Cn1cnnc1CC1(c2cccc(NC(=O)N3CCOc4cccnc43)c2)COC1     0.1 to 1 µM
2  C[C@H](Cc1nncn1C)c1cccc(-c2n[nH]c3cccnc23)c1       1 to 5 µM

Lab note: compound "C[C@H](Cc1nncn1C)c1cccc(-c2n[nH]c3c(N4CCC(O)CC4)cc(C(F)(F)F)nc23)c1" tested on Cbl-b (truncated variant, UniProt number Q13191) (Homo sapiens, UniProt Q13191); recorded IC50 was 0.1 to 1 µM

====

tested.system: Cbl-b (truncated variant, UniProt number Q13191) (Homo sapiens, UniProt Q13191)
Construct: made in house
test.description: Cbl-b activity assay (TR-FRET, interaction of Cbl-b with UbcH5B-Ub)
Assay type: biochemical
measurement.setup: Biological Example 1A; low or high conditions not stated; read-out: IC50 values in the Cbl-b inhibition assay of Biological Example 1A
pIC50: −log10 of the molar value.
Reported values of pIC50 for individual entries

# compound C[C@H](Sc1nncn1C)c1cccc(-n2cc(-c3ccc(CO)cc3)nn2)c1 [Example 85] ; its pIC50 = ≤ 5.30

# compound Cn1cnnc1CC1(c2cccc(C(=O)Nc3cccc(C4CC4)n3)c2)COC1 [Example 37] ; its pIC50 = ≤ 5.30

# compound COc1ccc(-c2cnn(-c3cccc([C@H](C)Sc4nncn4C)c3)n2)cc1 [Example 74] ; its pIC50 = 6.00 to 7.00

# compound Cc1cccc2c1CN(C(=O)Nc1cccc([C@H](C)Cc3nncn3C)c1)C2 [Example 13] ; its pIC50 = 6.00 to 7.00

====

tested.system: Cbl-b (truncated variant, UniProt number Q13191) (Homo sapiens, UniProt Q13191)
Construct: made in house
test.description: Cbl-b activity assay (TR-FRET, interaction of Cbl-b with UbcH5B-Ub)
Type: biochemical
measurement.setup: high conditions: 100 mM NaCl, 60 nM Src kinase; 12 nM Cbl-b; read-out: Cbl-b activity IC50
pIC50: −log10 of the molar value.
Reported values of pIC50 for individual entries

The examples below pair each entry with its known result.
>>> print(df.to_string())
                                   molecule  reported_metric  value_measured
0  CC1CN(C(=O)Nc2cccc([C@H](C)Sc3nncn3C)c2)CC1CO (stereo partly drawn)            pIC50          ≤ 5.30
1  C[C@H](Sc1nncn1C)c1cccc(-c2cc(-c3cccc(C#N)c3)no2)c1            pIC50    5.30 to 6.00

Turning now to a further record.
Lab note: molecule "C[C@H](Sc1nncn1C)c1cccc(NC(=O)N2CCOC3(CC3)C2)c1" tested on Cbl-b (truncated variant, UniProt number Q13191) (Homo sapiens, UniProt Q13191); recorded pIC50 was ≤ 5.30

====

tested.system: Cbl-b (truncated variant, UniProt number Q13191) (Homo sapiens, UniProt Q13191)
Construct: made in house
test.description: Cbl-b activity assay (TR-FRET, interaction of Cbl-b with UbcH5B-Ub)
Type: biochemical
measurement.setup: high conditions: 100 mM NaCl, 60 nM Src kinase; 12 nM Cbl-b; read-out: Cbl-b activity IC50
pIC50: −log10 of the molar value.
Reported values of pIC50 for individual entries

The examples below pair each entry with its known result.
>>> df
                            compound_smiles  reported_metric  value_measured
0  C[C@H](Cc1nncn1C)c1cccc(-c2n[nH]c3ccc(C(F)(F)F)nc23)c1            pIC50    6.00 to 7.00
1  CC(=O)N1CCN(C(=O)Nc2cccc([C@H](C)Sc3nncn3C)c2)CC1            pIC50          ≤ 5.30
2  C[C@H](Sc1nncn1C)c1cccc(-c2cc(-c3ccccc3)n[nH]2)c1            pIC50    6.00 to 7.00
3  C[C@H](Sc1nncn1C)c1cccc(NC(=O)N2CC(C)(F)C2)c1            pIC50          ≤ 5.30
4  C[C@H](Sc1nncn1C)c1cccc(-n2cc(-c3cccc(C(N)=O)c3)nn2)c1            pIC50    5.30 to 6.00
5  C[C@H](Sc1nncn1C)c1cccc(-n2ncc(-c3cccc(C(N)=O)c3)n2)c1            pIC50    6.00 to 7.00

Turning now to a further record.
# compound "C[C@H](Sc1nncn1C)c1ccnc(NC(=O)Nc2ccccn2)c1" ; its pIC50 = ≤ 5.30

====

tested.system: Cbl-b (truncated variant, UniProt number Q13191) (Homo sapiens, UniProt Q13191)
Construct: made in house
test.description: Cbl-b activity assay (TR-FRET, interaction of Cbl-b with UbcH5B-Ub)
Format: biochemical
measurement.setup: high conditions: 100 mM NaCl, 60 nM Src kinase; 12 nM Cbl-b; read-out: Cbl-b activity IC50
Reported values of IC50 for individual entries

>>> df
                                   molecule  value_measured
0  C[C@H](Sc1nncn1C)c1cccc(-n2ncc(-c3ccc(C#N)cc3)n2)c1 [Example 88]     0.1 to 1 µM
1  C[C@@H](Sc1nncn1C)c1cccc(-n2ncc(-c3ccccc3)n2)c1 [Example 100]          ≥ 5 µM
2  C[C@H](Sc1nncn1C)c1cccc(NC(=O)N2CC3(CCOC(=O)N3)C2)c1 [Example 141]          ≥ 5 µM
3  C[C@H](Sc1nncn1C)c1cccc(NC(=O)N2CC(C(=O)N3CCC(O)C3)C2)c1 (stereo partly shown) [Example 153]          ≥ 5 µM
4  C[C@H](Sc1nncn1C)c1cccc(NC(=O)N2CCN(C3CC3)C(=O)C2)c1 [Example 156]          ≥ 5 µM

# molecule C[C@H](Sc1nncn1C)c1cccc(-n2cc(-c3ccc(C(N)=O)cc3)nn2)c1 [Example 87] ; its IC50 = 1 to 5 µM

# molecule C[C@H](Cc1nncn1C)c1cccc(-c2n[nH]c3c(N4CC(O)C4)cc(C(F)(F)F)nc23)c1 [Example 110] ; its IC50 = 0.1 to 1 µM
